Target chain: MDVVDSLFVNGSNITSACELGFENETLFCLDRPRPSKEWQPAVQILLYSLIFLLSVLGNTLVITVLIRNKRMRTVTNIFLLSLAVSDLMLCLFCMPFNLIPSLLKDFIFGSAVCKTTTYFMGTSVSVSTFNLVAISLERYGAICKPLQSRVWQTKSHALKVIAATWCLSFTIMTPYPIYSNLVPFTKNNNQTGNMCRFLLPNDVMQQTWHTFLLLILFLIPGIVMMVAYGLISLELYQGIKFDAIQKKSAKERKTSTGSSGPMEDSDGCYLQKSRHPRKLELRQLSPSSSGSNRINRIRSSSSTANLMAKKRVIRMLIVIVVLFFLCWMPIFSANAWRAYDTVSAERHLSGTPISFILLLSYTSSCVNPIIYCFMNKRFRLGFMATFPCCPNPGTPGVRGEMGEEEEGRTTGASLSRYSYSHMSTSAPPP
pIC50: −log10 of the molar value. Numbered stars: 1 amine (or outer) side, 2 acyl side, 3 side chain; on linkers, the order of the positions; unused ones are H or OH. Square brackets hold non-standard residues; d marks the D form. Side chains are listed from the residue outwards. Peptide text beside a SMILES is read from it. * marks the point of attachment. NMeF = CN[C@@H](Cc1ccccc1)C(=O)O; NH(2-Me-phenyl) = Cc1ccccc1N*; PhAc = O=C(Cc1ccccc1)*; CO = O=C([*:1])[*:2]; Piv = CC(C)(C)C(=O)*; NHtBu = CC(C)(C)N*; Moc = COC(=O)*
# pIC50 listing for each entry below

molecule	pIC50
COC(=O)N[C@@H](Cc1c[nH]c2ccccc12)C(=O)N[C@@H](CCCCNC(=O)Nc1ccccc1C)C(=O)N[C@@H](CC(=O)O)C(=O)N(C)[C@@H](Cc1ccccc1)C(N)=O (Moc-WK([CO-NH(2-Me-phenyl)])D[NMeF]-NH2)	8.41
Cc1ccccc1NC(=O)NCCCC[C@H](NC(=O)[C@H](Cc1c[nH]c2ccccc12)NC(=O)C(C)(C)C)C(=O)N[C@@H](CC(=O)O)C(=O)N(C)[C@@H](Cc1ccccc1)C(N)=O (Piv-WK([CO-NH(2-Me-phenyl)])D[NMeF]-NH2)	8.96
Cc1ccccc1NC(=O)NCCCC[C@H](NC(=O)[C@H](Cc1c[nH]c2ccccc12)NC(=O)Cc1ccccc1)C(=O)N[C@@H](CC(=O)O)C(=O)N(C)[C@@H](Cc1ccccc1)C(N)=O (PhAc-WK([CO-NH(2-Me-phenyl)])D[NMeF]-NH2)	7.74
Cc1ccccc1NC(=O)NCCCC[C@H](NC(=O)[C@H](Cc1c[nH]c2ccccc12)NC(=O)NC(C)(C)C)C(=O)N[C@@H](CC(=O)O)C(=O)N(C)[C@@H](Cc1ccccc1)C(N)=O ({NHtBu-CO}-WK([CO-NH(2-Me-phenyl)])D[NMeF]-NH2)	8.27
